The values you see were collected from ChEMBL document CHEMBL1201862.

tested on: SN12C; test: NCI tumour cell line growth inhibition, 48 h
Activity calls are given as the source filed them. Cut-off read from the data, not from the text of the source: active = GI50 up to about 1.1 µM and inactive = higher.
metric.name: GI50

Record excerpt, results attached:
Cc1cn2c(/C=C3/C(=O)Nc4ccccc43)c(C)nc2s1 ... 7.03 µM (inactive)
COc1cc2c(cc1OC)[C@@H](C(O)c1ccccc1)NCC2 (stereo not given in full) ... > 100 µM (inactive)
O=C(CCC(=O)Nc1ccc(Cl)c(Cl)c1)CC(=O)c1ccc(Cl)cc1 ... > 100 µM (inactive)
Cc1cc(S(=O)(=O)[N-]C(=C(C#N)C#N)[n+]2ccc(N(C)C)cc2)c(SCC(=O)O)cc1Cl ... > 100 µM (inactive)

Value of measured GI50 for the entry NCC(O)CSP(=O)(O)O (stereo not given) : > 100 µM (inactive)

###

test system: NCI-H23; experiment: NCI tumour cell line growth inhibition, 48 h
Activity calls are given as the source filed them. Rule as the data show it: active = GI50 up to about 1.1 µM and inactive = higher.
Recorded GI50 values for a group of molecules are listed next.

Lab book: GI50 of CNc1ccc2nc(-c3ccc(OC(=O)N(C)C)cc3)cn2c1 noted as 21.2 µM (inactive)

Per the record, COc1c2c(cc3c1OCO3)[C@]13C=C[C@H](OC)C[C@H]1N(C2)CC3O (some centres not stated) has GI50 of > 100 µM (inactive)

So for CC(C(=O)OCc1ccccc1)N(Cc1ccccc1)Cc1ccccc1 (configuration not stated) , the logged GI50 turned out to be 45.2 µM (inactive)

###

tested on: SK-MEL-28; assay: NCI tumour cell line growth inhibition, 48 h
Calls of active or inactive are those of the source. Rule as the data show it: active = GI50 up to about 1.1 µM and inactive = higher.
Attribute: GI50

Past entries and their recorded results:
Cc1c(C)c(S(=O)(=O)N(CCCCN)OCCCN)c(C)c2c1OC(C)(C)CC2 ... 19.6 µM (inactive)
C[C@]12CC[C@@H]3c4cc(Br)c(O)c(Br)c4CC[C@H]3[C@@H]1CC(Br)C2=O (some centres not stated) ... 7.28 µM (inactive)
CC(=O)NNc1nc(C)c(C(=O)NNC(=O)C(=O)Nc2c(C)cccc2C(C)(C)C)s1 ... > 100 µM (inactive)
Cc1nc(C)c(N2CCN(S(=O)(=O)N(Cc3ccccc3)Cc3ccccc3)CC2)c(O)n1 ... > 100 µM (inactive)
CCOc1cc(/C=C/C=C/c2ccc(N(C)C)cc2)[s+]c2ccccc12 ... 27.2 µM (inactive)
COC(=O)C(C(=O)C(=O)Nc1ccc(OC)cc1[N+](=O)[O-])c1nc2cc(C)c(C)cc2nc1O (configuration not stated) ... > 100 µM (inactive)

Next, consider the following compound.
Noted for COc1c2c(cc3c1OCO3)[C@]13C=C[C@H](OC)C[C@H]1N(C2)CC3O (some centres not stated) : its GI50 reads > 100 µM (inactive)

###

tested on: DMS-273; test: NCI tumour cell line growth inhibition, 48 h
The source made the active and inactive calls. Cut-off read from the data, not from the text of the source: active = GI50 up to about 1.1 µM and inactive = higher.
Would you mind answering with one of these outcomes? active, inactive

S=P(N1CCCC1)(N1CC1)N1CC1 ... inactive
O=c1[nH]c(=O)n(C2CC(O)C(CO)O2)cc1COCC(F)(F)F (configuration not stated) ... inactive
CC1=CC2C(=O)N(c3ccccc3)C(=O)C2CC1n1[nH]c(=O)n(Cc2ccccc2)c1=O (configuration not stated) ... inactive
COc1ccc(Cc2cc(OC)c(OC)c(OC)c2)cc1 ... active
O=C(NC(Cc1ccccc1)C(=O)CCl)OCc1ccccc1 (configuration not stated) ... inactive
CC(C)C(Sc1nc(-c2ccccc2)c(-c2ccccc2)[nH]1)C(=O)N/N=C/c1ccc(Cl)cc1 (configuration not stated) ... inactive

Turning to the following compound.
Hey, what did the test say about N#CC(NNC(=O)c1ccccc1O)c1ccc(O)cc1 (configuration not stated) ?
inactive

###

system: HOP-62; test: NCI tumour cell line growth inhibition, 48 h
Calls of active or inactive are those of the source. No stated cut-off is given here; in the data, active = GI50 up to about 1.1 µM and inactive = higher.
Give your call using only these classes: label 1 for active, label 0 for inactive

The examples below pair each entry with its known result.
COC(=O)C1=C(O)C(C(=O)OC)[C@@]2(O)[C@@H](C(=O)OC)[C@H](C)[C@@H](C)[C@@H]1[C@@H]2C(=O)OC (some centres not stated) ... label 0
Cc1cn2c(/C=C3/C(=O)Nc4ccccc43)c(C)nc2s1 ... label 0
Oc1ccc2ccccc2c1-c1nnc(CCCCCCCCc2nnc(-c3c(O)ccc4ccccc34)o2)o1 ... label 0
Cc1nc(Cl)c(Cl)c(Cl)n1 ... label 1
CC1=CC2C(=O)N(c3ccccc3)C(=O)C2CC1n1[nH]c(=O)n(Cc2ccccc2)c1=O (configuration not stated) ... label 0
COc1nc(C#CC(C)(C)C)nc(OC)n1 ... label 0

--- query ---
I'd appreciate the recorded outcome for O=C1OC(=O)C2=C1C(c1cccs1)C=C(c1cccnc1)N2c1ccncc1 (configuration not stated) from this test.
label 0

###

Measured GI50 by item
test system: HCC 2998; experiment: NCI tumour cell line growth inhibition, 48 h
Active and inactive are the calls of the source. Rule as the data show it: active = GI50 up to about 1.1 µM and inactive = higher.

The recorded GI50 for entry COc1cccc(/C=N/n2c(Cc3ccc(Cl)cc3)n[nH]c2=O)c1 equals > 100 µM (inactive)

O=[N+]([O-])O has a reported GI50 of > 100 µM (inactive)

Record summary for CCOP(=O)(OCC)C(Nc1ccc(Cl)cc1)c1ccc(F)cc1 (configuration not stated) : reported GI50 = 22 µM (inactive)

GET /value?item= CC(=O)COC(=O)CC(C)=O &field=GI50 returns > 100 µM (inactive)

###

test system: A498; assay: NCI tumour cell line growth inhibition, 48 h
Activity calls are given as the source filed them. Cut-off read from the data, not from the text of the source: active = GI50 up to about 1.1 µM and inactive = higher.
metric.name: GI50

OC(CN(CCCl)CCCl)C(O)C(O)C(O)CN(CCCl)CCCl (centres undefined) ... > 100 µM (inactive)
O=C(/C=N/O)Nc1cccc(Cl)c1I ... 27.7 µM (inactive)
NS(=O)(=O)c1ccc(/N=N/c2c(O)c(C(=O)O)cc3ccccc23)cc1 ... > 100 µM (inactive)

From here, focus on the item given below.
Sure, the documented GI50 for COC(=O)c1c(C(=O)OC)c2ccc(-c3ccc(Cl)cc3)nn2c1C(=O)c1ccc([N+](=O)[O-])cc1 is > 100 µM (inactive)

###

system: A498; experiment: NCI tumour cell line growth inhibition, 48 h
Calls of active or inactive are those of the source. No stated cut-off is given here; in the data, active = GI50 up to about 1.1 µM and inactive = higher.
Pick one and only one: active, inactive

N#CC(C#N)=Cn1c(=S)[nH]c2ccccc21 ... inactive
O=C1C[C@H]2CC3(CC[C@H]2CN1)OCCO3 ... inactive
Cc1coc2c1C(=O)C(=O)c1ccccc1-2 ... inactive

I would be grateful if you could indicate the recorded call for COc1ccc(C(=O)CCN(C)C)c2ccccc12 .
inactive

Hey, what did the test say about c1ccc(C(c2cccc3c2ccc2ccccc23)C(c2ccccc2)c2cccc3c2ccc2ccccc23)cc1 (centres undefined) ?
inactive

Status in this test for CSc1c([S+](C)[O-])c2ccccc2n1C (centres undefined) ?
inactive

Name the outcome recorded for C=C[C@@H]1C[C@]2(C(=O)OC)Cc3nc4ccccc4nc3CC(C(=O)OC)=C2O1 in the assay.
inactive

Which result was noted for this compound in the test: Cc1ccc2c(O)cc(-c3cccs3)nc2n1
inactive

Please let me know the test result on file for CC(=O)c1cc2c(s1)C(=O)c1scc(C(C)=O)c1C2=O .
inactive

What was the test verdict on O=C(CC(=O)n1nc(-c2ccccc2)c(/N=N/c2ccccc2Cl)c1-c1ccccc1)Nc1ccc(Cl)cc1 ?
inactive

Please state the recorded outcome for this compound: NC(Cc1ccc2oc3cc(=O)c4ccccc4c-3nc2c1)C(=O)O (centres undefined)
inactive

Dear colleague, could you share the recorded outcome for CN1CN(C(=O)N2CN(C)C(=O)N(C)C2)CN(C)C1=O when you have a moment?
inactive

Given Cc1cc(C)nc(NS(=O)(=O)c2ccc(NC(=O)c3cccc4c(NNc5ccc(S(=O)(=O)N=C(N)N)cc5)c5ccccc5nc34)cc2)n1 , state the outcome it received in this test.
inactive

Record lookup: outcome of this test for CCCCCCCCCCCCOC1C(COCCN2CCCCC2)OC2OC(C)(C)OC21 (centres undefined) ?
inactive

Please state the recorded outcome for this compound: Cc1nc2ccccc2nc1NS(=O)(=O)c1ccc(N)cc1
inactive

Could you check what this test reported for CC(C)=CC(Cc1ccccc1)S(=O)(=O)c1nc2ccccc2s1 (centres undefined) ?
inactive

Short answer needed: outcome of this test for O=C1CCCCC1S(=O)(=O)c1ccccc1 (centres undefined) ?
inactive

For this compound, state the assay outcome: Cc1ccccc1C(=O)c1ccccc1O
inactive

// param item: CC(=O)[C@]1(O)Cc2c(O)c3c(c(O)c2C(OC2OC(C)C(O)C(O)C2F)C1)C(=O)c1ccccc1C3=O (some centres undefined) ; yields the recorded call
active

###

# GI50 listing for each entry below
tested on: SN12C; experiment: NCI tumour cell line growth inhibition, 48 h
Calls of active or inactive are those of the source. Rule as the data show it: active = GI50 up to about 1.1 µM and inactive = higher.

Use these answered entries as a reference point.
CN(C)CC1CC/C(=C\c2ccc(O)cc2)C1=O (configuration not stated) ... 5.64 µM (inactive)
CC(C)(C)C1CCC(=O)/C(=C/CC2CC(=O)N(c3ccccc3)C(=O)C2)C1 (configuration not stated) ... 17.5 µM (inactive)
CCOC(=O)C1=C(Nc2ccc(Cl)c(Cl)c2)OC/C1=N\NC(=O)Cc1ccccc1 ... > 100 µM (inactive)
O=c1[nH]c(=O)n(C2CC(O)C(CO)O2)cc1COCC(F)(F)F (configuration not stated) ... > 100 µM (inactive)
C[B@@-]1(c2ccc(C(F)(F)F)cc2)N[C@@H](Cc2ccccc2)C(=O)O1 ... > 100 µM (inactive)
CCN(CC)c1c(-c2c(N(CC)CC)c(OC(C)=O)c3sccn3c2=O)c(=O)n2ccsc2c1OC(C)=O ... > 100 µM (inactive)

For O=C(c1ccc(Cl)cc1)N(C(=O)N1CCCCC1)c1ccccc1 the compound record lists GI50 as > 100 µM (inactive)

Looking up O=C1OCC2OC(=O)c3cc(O)c(O)c(O)c3-c3c(O)c(O)c(O)c4c3C(=O)OC(C2OC(=O)c2cc(O)c(O)c(O)c2-c2c1cc(O)c(O)c2O)C1OC(=O)c2c-4c(O)c(O)c(O)c2[C@@H]1C(O)C(O)C(O)C(O)CO (some centres not stated) , I see its GI50 listed as 16 µM (inactive)
